Tested on: allergic conjunctivitis to ragweed (Ambrosia trifida)
assay_remarks: Allergic conjunctivitis to ragweed in guinea pig: clinical scores (conjunctival edema and redness)
Assay type: in vivo, Hartley female guinea pig
particulars: conjunctival edema and redness score 0-4+, 20 min after allergen challenge, 12 eyes per group, eye drops
Readings of Statistical evaluation of clinical scores (Mann-Whitney test), P compared to Livostine for the listed substances
measurement_kind: Statistical evaluation of clinical scores (Mann-Whitney test), P compared to Livostine

substance	number
MQMKKVLDS [Peptide A3, known peptide, antiflammin]	0.043
HDMNKVLDL [Peptide A2, known peptide, antiflammin]	0.003
KVLDPVKG [Peptide R1, synthetic peptide of the invention]	0.000
SHLRKVFDK [Peptide A1, known peptide, antiflammin]	0.009
GTLAKKLT [Peptide P2]	0.000
KVLDGQDP [Peptide R2, synthetic peptide of the invention]	0.515
RKLMEI (PKLMEI) [Peptide P1]	0.003

====

Tested on: allergic conjunctivitis to ragweed (Ambrosia trifida)
assay_remarks: Allergic conjunctivitis to ragweed in guinea pig: clinical scores (conjunctival edema and redness)
Format: in vivo, Hartley female guinea pig
particulars: conjunctival edema and redness score 0-4+, 20 min after allergen challenge, 12 eyes per group, eye drops
Threshold-based label: Statistical evaluation of clinical scores (Mann-Whitney test), P compared to Dexamethasone under 0.007 gives class 1, Statistical evaluation of clinical scores (Mann-Whitney test), P compared to Dexamethasone not under 0.007 gives class 0.

substance	measured_on	class_label
KVLDGQDP [Peptide R2, synthetic peptide of the invention]	allergic conjunctivitis to ragweed (Ambrosia trifida)	class 0
GTLAKKLT [Peptide P2]	allergic conjunctivitis to ragweed (Ambrosia trifida)	class 1
HDMNKVLDL [Peptide A2, known peptide, antiflammin]	allergic conjunctivitis to ragweed (Ambrosia trifida)	class 1
KVLDPVKG [Peptide R1, synthetic peptide of the invention]	allergic conjunctivitis to ragweed (Ambrosia trifida)	class 1
MQMKKVLDS [Peptide A3, known peptide, antiflammin]	allergic conjunctivitis to ragweed (Ambrosia trifida)	class 0
RKLMEI (PKLMEI) [Peptide P1]	allergic conjunctivitis to ragweed (Ambrosia trifida)	class 1
